Biological target: ATP-dependent DNA helicase Q1 (Homo sapiens) (UniProt P46063)
Sequence (P46063 whole entry, looked up): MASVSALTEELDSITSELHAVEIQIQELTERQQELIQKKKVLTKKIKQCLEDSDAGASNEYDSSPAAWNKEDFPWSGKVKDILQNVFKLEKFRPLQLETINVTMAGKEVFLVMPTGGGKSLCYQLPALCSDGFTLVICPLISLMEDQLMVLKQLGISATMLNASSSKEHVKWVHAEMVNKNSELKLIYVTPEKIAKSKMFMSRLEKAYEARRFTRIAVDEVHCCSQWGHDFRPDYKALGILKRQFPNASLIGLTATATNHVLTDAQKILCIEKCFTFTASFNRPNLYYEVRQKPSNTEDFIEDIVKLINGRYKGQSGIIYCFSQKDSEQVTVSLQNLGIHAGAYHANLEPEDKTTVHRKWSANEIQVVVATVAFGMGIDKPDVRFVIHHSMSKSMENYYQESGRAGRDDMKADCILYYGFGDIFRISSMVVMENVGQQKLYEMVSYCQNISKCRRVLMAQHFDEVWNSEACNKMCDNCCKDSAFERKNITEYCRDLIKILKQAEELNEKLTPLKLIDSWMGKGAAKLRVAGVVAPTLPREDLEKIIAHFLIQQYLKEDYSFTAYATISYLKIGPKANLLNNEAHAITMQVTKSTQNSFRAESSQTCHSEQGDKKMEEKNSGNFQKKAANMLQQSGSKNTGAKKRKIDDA
Assay: qHTS Validation Assay for Inhibitors of RecQ-Like Dna Helicase 1 (RECQ1) (AID 2353)
Details: recombinant RECQ1 helicase DNA unwinding assay; series mostly up to 25.6 µM
The source made the active and inactive calls. Calls follow the shape of the dose curve; as a rule, active = well fitted inhibition curve with a large enough effect; inconclusive = small, poorly fitted or top-dose-only effect; inactive = flat fitted curve, though single readings scatter.
Your response should consist of one outcome taken from class 1 = active, class 0 = inactive

Some entries whose results are on file:
CCCNC[C@H](O)COc1ccccc1C(=O)CCc1ccccc1 :: class 0
N.N.N.N.N.N.N.N.N.N.N.N.N.N.O.O.[Cl-].[Cl-].[Cl-].[Cl-].[Cl-].[Cl-].[Ru].[Ru].[Ru] :: class 1
CC(C)C[C@H]1C(=O)N2CCCC2[C@]2(O)O[C@](NC(=O)[C@@H]3C=C4c5cccc6[nH]c(Br)c(c56)C[C@H]4N(C)C3)(C(C)C)C(=O)N12 (stereo partly specified) :: class 0
CNC(=O)[C@H]1O[C@@H](n2cnc3c(NCc4cccc(I)c4)ncnc32)[C@H](O)[C@H]1O :: class 0
C[C@H](Cc1ccccc1)Nc1ncnc2c1ncn2[C@@H]1O[C@H](CO)[C@H](O)[C@H]1O :: class 0

## Task Call for entry "CN(CCOc1ccc(C[C@H](Nc2ccccc2C(=O)c2ccccc2)C(=O)O)cc1)c1ccccn1" :
## Result class 0

## Task Call for entry "CCCC(=O)NCCc1c2n(c3ccc(OC)cc13)Cc1ccccc1-2" :
## Result class 0

## Task Call for entry "N[C@H](Cc1ccc(O)c(O)c1)C(=O)O" :
## Result class 0

## Task Call for entry "CSc1nc(N)c2ncn([C@@H]3O[C@H](COP(=O)(O)OP(=O)(O)O)[C@H](O)[C@H]3O)c2n1" :
## Result class 0

## Task Call for entry "CCSC(N)=Nc1ccc(C(F)(F)F)cc1" :
## Result class 0

----------
Assay: qHTS Assay for Lipid Storage Modulators (AID 1519); also: % is scaled to controls: 0 for no effect and ±100 for the full control effect
Conditions: Drosophila S3 cells, BODIPY lipid droplet/cell ratio, laser cytometry; at 57.5 µM (top of the series); cells loaded with oleic acid
Results filed as inconclusive are left out. Activity calls are given as the source filed them. Calls come from the whole dose curve.
# reported activity change, negative = inhibition; entries follow

activity change, negative = inhibition reading for CC(=O)O[C@H]1C[C@@H]2CCC3C(CC[C@@]4(C)[C@H]3C[C@H]([N+]3(C)CCCCC3)[C@@H]4OC(C)=O)[C@@]2(C)C[C@@H]1[N+]1(C)CCCCC1 (stereo not given in full) : 0.655% (inactive)

activity change, negative = inhibition reading for "CC(=O)N1CCC2(CC1)CN(c1ccncc1)C2" : 2.66% (inactive)

activity change, negative = inhibition reading for "COc1cc(O)c2c(=O)cc(C)oc2c1CC=C(C)C" : 15% (inactive)

activity change, negative = inhibition reading for "O=C(Nc1ccccc1)N1CC2(CCN(C(=O)c3ccco3)CC2)C1" : 5.54% (inactive)

activity change, negative = inhibition reading for "CN1CCN(c2cc(-c3ccccc3C(F)(F)F)ncn2)CC1" : 9.46% (inactive)

activity change, negative = inhibition reading for "O=c1c(-c2cc(F)cc(F)c2)nc2cnc(N3CCNCC3)nc2n1Cc1cccs1" : -29.8% (inactive)

activity change, negative = inhibition reading for "O=C(Nc1ccccc1)N1CCCC2(CCN(C(=O)c3ccco3)CC2)C1" : 4.55% (inactive)

activity change, negative = inhibition reading for "O=C(Oc1ccccc1)N1CCC2(CCCN(c3ccccc3)C2)CC1" : -26.4% (inactive)

activity change, negative = inhibition reading for "c1cncc(CNc2nc(-c3ccoc3)nc3ccccc23)c1" : 12.2% (inactive)

activity change, negative = inhibition reading for "CN(Cc1ccco1)c1ncnc2ccc(-c3ccccc3C(F)(F)F)cc12" : -0.853% (inactive)

activity change, negative = inhibition reading for "Cc1cccc(CNc2ncnc3ccc(-c4ccc5c(c4)OCO5)cc23)c1" : 5.85% (inactive)

activity change, negative = inhibition reading for "Cn1c(=O)cnc2cnc(OCc3ccccc3)nc21" : 9.09% (inactive)

----------
Experiment: Primary qHTS for inhibitors of nuclear receptor binding SET domain protein 2 (NSD2) in an RCH-ACV wild type WT cells (2C) (AID 1645877); also: nearly all actives have a fitted effect of over 70% in size; also: potency is read from the fitted curve at half-maximal effect
Conditions: RCH-ACV (leukaemia line) NSD2 WT (2C) viability, CellTiter-Glo, 72 h; series mostly up to 44.9 µM
Records with an inconclusive call do not appear. The source made the active and inactive calls. Calls come from the whole dose curve; as a rule, active = well fitted inhibition curve with a large enough effect; inconclusive = small, poorly fitted or top-dose-only effect; inactive = no such curve, though single readings can be large or run the other way.
Metric: Potency

Reference set, count: 8
CCOc1cc(/C=C2/C(=O)N(c3ccccc3)N=C2C)cc(Cl)c1OCC(=O)OC :: inactive
CCC[C@H](NC(=O)/C(C#N)=C/c1cccc(Br)n1)c1ccccc1 :: 13200 nM (active)
O=C(/C=C/c1cccnc1)NCCCCC1CCN(C(=O)c2ccccc2)CC1 :: 4.7 nM (active)
C=C1C(=O)O[C@H]2C[C@H](C)C(/C=C/C(C)=O)=CC[C@H]12 :: 1320 nM (active)
O=C(O)C[C@H]1CCc2c1[nH]c1ccc(OCc3ccc(C4CCCC4)c(C(F)(F)F)c3)cc21 :: inactive
NS(=O)(=O)c1ccc(S(=O)(=O)Nc2cccc3c(Cl)c[nH]c23)cc1 :: 590 nM (active)
O=C(O)CC(C(=O)O)n1c(O)c(C2=c3cc(Br)ccc3=NC2=O)sc1=S (centres undefined) :: inactive
C=CCN1C[C@H](C(=O)N(CCCN(C)C)C(=O)NCC)CC2c3cccc4[nH]cc(c34)C[C@H]21 (some centres undefined) :: inactive

Potency reading for "CC(=O)[C@]1(N)Cc2c(O)c3c(c(O)c2[C@@H](O[C@H]2C[C@H](O)[C@H](O)CO2)C1)C(=O)c1ccccc1C3=O" : 23500 nM (active)

----------
Target: Calcium and integrin-binding protein 1 (Homo sapiens) (UniProt Q99828)
Sequence (Q99828 whole entry, looked up): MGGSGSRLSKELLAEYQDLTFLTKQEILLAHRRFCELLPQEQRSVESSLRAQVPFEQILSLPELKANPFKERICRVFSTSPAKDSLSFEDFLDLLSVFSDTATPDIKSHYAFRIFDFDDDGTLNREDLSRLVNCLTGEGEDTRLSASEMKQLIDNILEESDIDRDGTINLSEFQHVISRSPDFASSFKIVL
Assay: Primary qHTS for Identification of Calcium Integrin Binding Protein 1 (CIB1) Competitor (AID 1508620);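 also: GST tagged CIB1 binding a fluorescein labelled alphaIIb integrin peptide tracer; top concentration of the series differs between compounds; % is scaled to controls: 0 for no effect and ±100 for the full control effect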
Settings: CIB1-GST / FITC-alphaIIb peptide fluorescence polarization; series mostly up to 114 µM
Records with an inconclusive call do not appear. The source made the active and inactive calls. Calls come from the whole dose curve; as a rule, active = well fitted inhibition curve with a large enough effect; inconclusive = small, poorly fitted or top-dose-only effect; inactive = flat fitted curve, though single readings scatter.
Metric: outcome

Reference set, count: 6
Cc1nc(C)c(-c2ccc3ncnc(NCc4ncc[nH]4)c3c2)s1 :: inactive
Cc1ccc2nc3sc(C(=O)Nc4ccc(F)cc4)cc3cc2c1 :: inactive
Cc1cc2c(s1)c1cnn(Cc3cc(F)cc(F)c3)c(=O)c1n2C :: inactive
FC(F)(F)c1ccc(N2CCN(C(=S)Nc3ccccn3)CC2)cc1 :: inactive
Cc1ccc(NS(=O)(=O)c2cccc(Cl)c2)cc1C :: inactive
O=C1c2ccccc2NC(c2ccc(-c3cccs3)o2)N1O (configuration not stated) :: inactive

outcome reading for COc1ccc(C2c3c(N)nc(Cc4ccccc4)nc3Oc3ccc4ccccc4c32)cc1OC (configuration not stated) : inactive

outcome reading for "O=C(O)c1ccc2c(c1)C(=O)N(CCc1ccc(O)cc1)C2=O" : inactive

outcome reading for "CC(C)(C)n1nc(Cc2cccc3ccccc23)c2c(N)ncnc21" : inactive

outcome reading for "O=C(O)c1ccc2c(c1)C(=O)N([C@@H](C(=O)O)C(c1ccccc1)c1ccccc1)C2=O" : inactive

outcome reading for "N#Cc1ccccc1S(=O)(=O)N1CCN(S(=O)(=O)c2ccc3c(c2)OCCO3)CC1" : inactive

outcome reading for "N[C@@H](CCC(=O)O)C(=O)Nc1ccc(Cl)cc1C(=O)c1ccc[nH]1" : inactive

outcome reading for COc1cccc(CCN2C(=O)c3ccccc3NC2c2ccc(OC)c(COc3c(C)cc(NC(C)=O)cc3C)c2)c1 (configuration not stated) : inactive

outcome reading for "Cc1ccc2nc3sc(C(=O)NCc4ccco4)cc3cc2c1" : inactive

outcome reading for "CCOC(=O)c1ccoc1-c1ccc2ncnc(NCc3csc(C)n3)c2c1" : inactive

outcome reading for CN(CCC1CCCO1)c1ncnc2ccc(-c3ccc4c(c3)OCO4)cc12 (configuration not stated) : inactive

outcome reading for "COc1cccc(CNc2ccc(S(=O)(=O)Nc3nc(C)cs3)cc2)c1O" : inactive

outcome reading for "Cn1c2cc(C=O)sc2c2cnn(Cc3ccccc3F)c(=O)c21" : inactive

outcome reading for "Oc1c(CN2CCCCC2)cc(COCc2ccccc2)c2cccnc12" : inactive

outcome reading for Cc1cc(C)nc(NC(=S)N2CCN(c3cccc(S(C)=O)c3)CC2)c1 (configuration not stated) : inactive

outcome reading for "Fc1cc(Nc2nc(-c3ccncc3)nc3ccccc23)ccc1-c1ccncc1" : inactive

outcome reading for COc1ccc(C2=Nn3c(nnc3-c3ccccc3F)SC2)cc1OC1CCOC1 (configuration not stated) : inactive

----------
Experiment: qHTS drug screen for cell cycle checkpoint inhibitors in PARPi-resistant BRCA-mutant ovarian cancer cell lines. (AID 1963452)
Conditions: PEO1/OlaR viability, CellTiter-Glo luminescence, 96 h; measured here: PEO4 Z-AUC; stronger effect = lower value
Metric: Z-AUC
The answer should be a number; do not append a unit.

Reference set, count: 3
COc1ccc(Cl)cc1-c1cc(=O)[nH]c(=S)n1CC(N)=O :: 0.346
COc1ccc(N2C(=O)N(c3c(C)cccc3Cl)Cc3cnc(Nc4ccc(C5CCN(C)CC5)cc4OC)nc32)nc1 :: -0.332
CCn1c(=O)c(-c2ccc(-c3cncc(C)n3)cc2Cl)cc2cnc(NCCC3CCN(C)CC3)nc21 :: 1.06

Z-AUC reading for CCS(=O)(=O)N1CCC(C(C)n2c(C)c(C(=O)NCc3c(OC)cc(C)[nH]c3=O)c3ccccc32)CC1 (stereo not given) : 0.959

Z-AUC reading for "C[C@H]1CNCCCN1S(=O)(=O)c1cccc2cncc(F)c12" : 0.771

Z-AUC reading for "CNc1nc(-c2ccc3c(N)n[nH]c3c2)cc(N2C[C@@H](C(=O)NC3CCCCC3)CC[C@H]2C)n1" : -0.0883

Z-AUC reading for "CC(C)Oc1ccc(-c2nn([C@@H](C)c3oc4ccc(F)cc4c(=O)c3-c3cccc(F)c3)c3ncnc(N)c23)cc1F" : -0.0554

Z-AUC reading for OC1CCC(Oc2cccc3cnc(Nc4ccc5nc[nH]c5c4)nc23)CC1 (stereo not given) : -0.421
